Data provenance: the supplement of paper PMC8239392

test system: TAZ-DEP MCF10A-TAZ tumor cells; assay: cell viability relative to DMSO control; higher = less cytotoxic; extreme values may be limits of the assay; conditions: 0.65 µM; 72 h
assay readout: cell viability (%)

>>> df
                         compound_structure  result_value
0  Cc1[nH]nc(C(F)(F)F)c1Cc1sc2c(c1C(=O)N1C[C@](C)(O)CO1)c(=O)n(C)c(=O)n2C(C)C            54
1  C[C@H]1COC2=C1C(=O)C(=O)c1c2ccc2c1CCCC2(C)C            96
2      O=C(O)c1cc2cccc([N+](=O)[O-])c2[nH]1           100
3          O=C(/C=C/c1ccc2ccccc2n1)c1ccncc1           100
4  COC1CCN(C(=O)c2cc(Cc3n[nH]c(=O)c4ccccc34)ccc2F)CC1            94
5  Cc1c(Cc2ccc3ccccc3n2)c2cc(F)ccc2n1CC(=O)O            90
6  CC(C)(C)c1ccc(S(=O)(=O)NCc2ccc(C(=O)Nc3cccnc3)cc2)cc1           100
7  CNCc1ccc(-c2cc(-c3nc(-c4ccc(S(=O)(=O)C(C)C)cc4)cnc3N)on2)cc1            55
8  C=CC(=O)Nc1cccc(Oc2nc(Nc3ccc(N4CCN(C)CC4)cc3OC)ncc2Cl)c1            90

====

system: TAZ-IND MCF10A-TAZ tumor cells; assay: cell viability relative to DMSO control; higher = less cytotoxic; extreme values may be limits of the assay; settings: 0.65 µM; 72 h
// reported cell viability per item
assay readout: cell viability (%)

                                   compound   assay_readout  result_value
0  Cc1[nH]nc(C(F)(F)F)c1Cc1sc2c(c1C(=O)N1C[C@](C)(O)CO1)c(=O)n(C)c(=O)n2C(C)C  cell viability            92
1  C[C@H]1COC2=C1C(=O)C(=O)c1c2ccc2c1CCCC2(C)C  cell viability            96
2  Cc1c(Cc2ccc3ccccc3n2)c2cc(F)ccc2n1CC(=O)O  cell viability            90
3         CCCCCCCCCCCC1=C(O)C(=O)C=C(O)C1=O  cell viability            89
4  COCCOc1cnc2ccn([C@H](C)c3nnc4c(F)cc(-c5cnn(C)c5)cn34)c(=O)c2c1  cell viability            97
5  CCN(CC)CCCC(C)Nc1nc(C)cc(Nc2ccc3nc(C)cc(N)c3c2)n1 (stereo not given)  cell viability            80
6  N#CC(=C(/N)Sc1ccccc1N)/C(C#N)=C(\N)Sc1ccccc1N  cell viability            95
7  COC1CCN(C(=O)c2cc(Cc3n[nH]c(=O)c4ccccc34)ccc2F)CC1  cell viability            94
8            O=[N+]([O-])C=Cc1ccc2c(c1)OCO2  cell viability           100
9  C#Cc1cccc(Nc2ncnc3cc4c(cc23)OCCOCCOCCO4)c1  cell viability           100

====

tested on: TAZ-DEP MCF10A-TAZ tumor cells; test: cell viability relative to DMSO control; higher = less cytotoxic; extreme values may be limits of the assay; conditions: 2.5 µM; 72 h
assay readout: cell viability (%)

In [3]: df
Out[3]:
                                    compound   assay_readout  result_value
 0  N#CC(=C(/N)Sc1ccccc1N)/C(C#N)=C(\N)Sc1ccccc1N  cell viability            84
 1  COC1CCN(C(=O)c2cc(Cc3n[nH]c(=O)c4ccccc34)ccc2F)CC1  cell viability            94
 2  CC(=O)c1c(C)c2cnc(Nc3ccc(N4CCNCC4)cn3)nc2n(C2CCCC2)c1=O  cell viability            70
 3             CCc1nc(N)nc(N)c1-c1ccc(Cl)cc1  cell viability            98
 4  Cc1c(Cc2ccc3ccccc3n2)c2cc(F)ccc2n1CC(=O)O  cell viability            69
 5          O=C(/C=C/c1ccc2ccccc2n1)c1ccncc1  cell viability            81
 6          Nc1nc(OCc2cc(Br)cs2)c2[nH]cnc2n1  cell viability            90
 7  NCCCC[C@@H]1NC(=O)[C@@H](Cc2ccc(O)cc2)NC(=O)[C@H](CC(=O)O)NC(=O)CNC(=O)[C@H](CCCN=C(N)N)NC1=O [Cyclo(RGDyK)]  cell viability            59
 8  O=C(NOC[C@H](O)CO)c1ccc(F)c(F)c1Nc1ccc(I)cc1F  cell viability            53
 9  CNC(=O)c1cc(Oc2ccc(NC(=O)Nc3ccc(Cl)c(C(F)(F)F)c3)cc2)ccn1  cell viability            92
10  COc1ccccc1S(=O)(=O)Nc1ccc2c(c1)CN(C)C(=O)N2  cell viability            63
11  CCN(CC)CCCC(C)Nc1nc(C)cc(Nc2ccc3nc(C)cc(N)c3c2)n1 (stereo unspecified)  cell viability            47
12      CCn1c2ccccc2c2cc(CNCc3ccccc3OC)ccc21  cell viability           100
13  CN(C)CCSSCCNC(=O)C1CCN(C(=O)CSc2ccc(Cl)cc2)CC1  cell viability            89
14         CCCCCCCCCCCC1=C(O)C(=O)C=C(O)C1=O  cell viability            75
15  C[C@H]1COC2=C1C(=O)C(=O)c1c2ccc2c1CCCC2(C)C  cell viability            92

====

system: TAZ-IND MCF10A-TAZ tumor cells; test: cell viability relative to DMSO control; higher = less cytotoxic; extreme values may be limits of the assay; conditions: 2.5 µM; 72 h
// reported cell viability per item
assay readout: cell viability (%)

In [3]: df
Out[3]:
                         compound_structure                     target_desc   assay_readout  result_value
0         CCCCCCCCCCCC1=C(O)C(=O)C=C(O)C1=O  TAZ-IND MCF10A-TAZ tumor cells  cell viability            90
1  Cc1c(Cc2ccc3ccccc3n2)c2cc(F)ccc2n1CC(=O)O  TAZ-IND MCF10A-TAZ tumor cells  cell viability            90
2  CNCc1ccc(-c2cc(-c3nc(-c4ccc(S(=O)(=O)C(C)C)cc4)cnc3N)on2)cc1  TAZ-IND MCF10A-TAZ tumor cells  cell viability            81
3  C[C@H]1COC2=C1C(=O)C(=O)c1c2ccc2c1CCCC2(C)C  TAZ-IND MCF10A-TAZ tumor cells  cell viability            93
4  O=C([C@@H](Cc1cccc(C(F)(F)F)c1)NS(=O)(=O)c1cc(F)c2c(c1)CCNC2)N1CCCC1  TAZ-IND MCF10A-TAZ tumor cells  cell viability            92

====

tested on: TAZ-DEP MCF10A-TAZ tumor cells; assay: cell viability relative to DMSO control; higher = less cytotoxic; extreme values may be limits of the assay; conditions: 2.5 µM; 72 h
Cut-off 80% on cell viability: below means criterion met, at or above means criterion not met.

In [3]: df
Out[3]:
                         compound_structure     discrete_label
0  CC(C)(C)c1ccc(S(=O)(=O)NCc2ccc(C(=O)Nc3cccnc3)cc2)cc1  criterion not met
1  CN1CCN(CCCNc2ncc(Cl)c(-c3cc4c(C(=O)NC5CC5)cccc4s3)n2)CC1      criterion met
2  COCCOc1cnc2ccn([C@H](C)c3nnc4c(F)cc(-c5cnn(C)c5)cn34)c(=O)c2c1      criterion met
3  Cc1[nH]nc(C(F)(F)F)c1Cc1sc2c(c1C(=O)N1C[C@](C)(O)CO1)c(=O)n(C)c(=O)n2C(C)C      criterion met
4  O=C1NC(=O)/C(=C/c2ccc(-c3ccc(F)cc3O)o2)S1      criterion met
5            O=[N+]([O-])C=Cc1ccc2c(c1)OCO2  criterion not met
6  CNCc1ccc(-c2cc(-c3nc(-c4ccc(S(=O)(=O)C(C)C)cc4)cnc3N)on2)cc1      criterion met

====

tested on: TAZ-DEP MCF10A-TAZ tumor cells; assay: cell viability relative to DMSO control; higher = less cytotoxic; extreme values may be limits of the assay; conditions: 2.5 µM; 72 h
Cut-off 70% on cell viability: below means Met, at or above means Not met.

                                   molecule                     target_desc  discrete_label
0  C#Cc1cccc(Nc2ncnc3cc4c(cc23)OCCOCCOCCO4)c1  TAZ-DEP MCF10A-TAZ tumor cells         Not met
1  C=CC(=O)Nc1cccc(Oc2nc(Nc3ccc(N4CCN(C)CC4)cc3OC)ncc2Cl)c1  TAZ-DEP MCF10A-TAZ tumor cells             Met
2      O=C(O)c1cc2cccc([N+](=O)[O-])c2[nH]1  TAZ-DEP MCF10A-TAZ tumor cells         Not met
3  COc1cc(F)c(F)c(Nc2ccc(I)cc2F)c1NS(=O)(=O)C1(C[C@H](O)CO)CC1 [Refametinib (RDEA119, Bay 86-9766)]  TAZ-DEP MCF10A-TAZ tumor cells             Met
